- System: UO-31
- test.summary: NCI tumour cell line growth inhibition, 48 h
Active and inactive are the calls of the source. Rule as the data show it: active = GI50 up to about 1.1 µM and inactive = higher.
Outcomes: y (active), n (inactive)

| compound | label |
| --- | --- |
| O=C(O)c1cccc2c1/C(=N/Nc1ccccc1)CC2 | n |
| O=C(Nc1ccc([N+](=O)[O-])cc1)C(=O)C(C(=O)c1ccccc1F)C1OC(=O)c2ccccc21 (stereo unspecified) | n |
| C[N+](C)(C)CCOC(=O)/C=C/c1c[nH]cn1 | n |
| O=C1CCCC/C1=C1/SC(=N/c2ccccc2)/C(=N\c2ccccc2)N1c1ccccc1 | n |
| C=CCOC1OC(CS(=O)(=O)O)C(O)C(O)C1O (stereo unspecified) | n |
| CC(C)CCCCCCCCCCCCC(=O)NCC(=O)NC1C(C)OC(Nc2[nH]cnc3ncnc2-3)C(O)C1O (stereo unspecified) | y |
| C/C=C/C1(NS(=O)(=O)c2ccc(C)cc2)CCC(C(C)(C)C)CC1 (stereo unspecified) | n |
| COc1cc(/C=N/N=C(\N)NO)cc(Cl)c1O | n |
| Clc1ccc(-c2c(C3=NCCN3)nnn2-c2ccc(Cl)cc2)cc1 | n |
| COc1ccc2nc3c4c(nccc4c2c1)-c1ncccc1C3=O | y |
| COc1cnnc2c(C)c(-c3ccccc3)nn12 | n |

* * *

- Tested on: SN12C
- test.summary: NCI tumour cell line growth inhibition, 48 h
Activity calls are given as the source filed them. No stated cut-off is given here; in the data, active = GI50 up to about 1.1 µM and inactive = higher.
Classes used: active, inactive

| compound | label |
| --- | --- |
| CC(C)(C)OCC1NC(=O)[C@@H]2Cc3c([nH]c4ccccc34)C(C3CCCCC3)N2C1=O (stereo partly specified) | inactive |
| OC(C1=C/C(=C\c2ccncc2)c2ccccc21)c1ccncc1 (stereo unspecified) | inactive |
| C/C(=N\NS(=O)(=O)c1ccccc1)c1ccc(Cl)c(Cl)c1 | inactive |
| Cc1cc(C)c2c(O)cc(-c3cccc(Cl)c3)nc2n1 | active |
| CC12CCC3c4ccc(O)cc4CCC3C1C/C(=N\O)C2O (stereo unspecified) | inactive |
| Cc1cc2c(cc1C)NC1=C(O)C(c3c[nH]c4ccc(COc5ccccc5)cc34)OC1=N2 (stereo unspecified) | inactive |

* * *

- System: UACC-62
- test.summary: NCI tumour cell line growth inhibition, 48 h
Calls of active or inactive are those of the source. No stated cut-off is given here; in the data, active = GI50 up to about 1.1 µM and inactive = higher.
This section presents compounds with their documented GI50 values.
parameter: GI50

| compound | observed.result |
| --- | --- |
| COc1ccccc1C(=O)N(Cc1ccccc1)c1ccc(Cl)c(C(=O)OC(C)C)c1 | 19.8 µM (inactive) |
| CC(C)(C)/C(=N\Nc1nc2ccccc2[nH]1)c1ccccn1 | > 100 µM (inactive) |
| CSCCC(NCc1c(O)ccc2ccc(=O)oc12)C(=O)O (stereo unspecified) | > 100 µM (inactive) |
| C[Si](C)(C)/C(Br)=C\CCN1C(=O)CCC1=O | > 100 µM (inactive) |
| COc1ccc2c(c1)[n+]([O-])c(-c1ccc(OC)c(OC)c1)c(N)[n+]2[O-] | 31.1 µM (inactive) |
| CS(=O)(=O)c1ccc(C2=C(c3ccccc3)C(=O)OC2)cc1 | > 100 µM (inactive) |
| O=C(CCCn1cnc([N+](=O)[O-])n1)NCCn1ccnc1[N+](=O)[O-] | > 100 µM (inactive) |
| Nc1ncnc2ccc(Sc3ccc4ncnc(N)c4c3)cc12 | > 100 µM (inactive) |
| CCN(CC)/[N+]([O-])=N/O | > 100 µM (inactive) |
| N=C1N(S(=O)(=O)c2ccccc2)[C@@H](Cc2ccccc2)[C@H](c2ccccc2)C1(c1ccccc1)c1ccccc1 | > 100 µM (inactive) |
| CN(C)CCOc1cc2c(c3ccccc13)-c1ccccc1C2O (stereo unspecified) | 17.2 µM (inactive) |
| COC(=O)/C=C(/C(=O)OC)c1c(C)cc2c(C)cc(C)cc(C)c1-2 | 9.77 µM (inactive) |
| O=C(CSC1=NC(=O)C2(NN1)c1ccccc1-c1ccccc12)NC(=S)Nc1ccccc1 | > 10 µM (inactive) |
| Nc1ccc2nc(NCc3ccc(F)cc3)cnc2c1 | > 100 µM (inactive) |
| COc1cccc(-c2cc(O)c3cc4c(cc3n2)OCO4)c1 | 0.0531 µM (active) |
| Cc1ccc(C(C2C(=O)N(C)C(=O)N(C)C2=O)C(F)(F)C(=O)N(C)C)cc1 (stereo unspecified) | > 100 µM (inactive) |
| Cc1ccccc1-n1c(=O)sc2c(=O)n(-c3ccccc3)c(=S)[nH]c21 | > 100 µM (inactive) |
| CCCCCCCCCCCCCC(=O)O[C@H]1CC[C@H](NC(=O)[C@H](OC)[C@H](O)[C@@H](O)[C@H](O)/C=C/C(C)C)C(=O)N(C)C1 [BENGAMIDE B] | 0.00807 µM (active) |
| Cc1ccc(-c2cnc(NC3OC(COC(=O)c4ccccc4)C(OC(=O)c4ccccc4)C(OC(=O)c4ccccc4)C3OC(=O)c3ccccc3)s2)cc1 (stereo unspecified) | 94.6 µM (inactive) |
| O=C(O)/C(=C\c1ccccc1Cl)S(=O)(=O)c1ccccc1 | > 100 µM (inactive) |
| Cc1cc(-c2nc3c(F)cccc3s2)ccc1N | 21 µM (inactive) |

* * *

Recorded GI50 by entry
- Test system: M14
- test.summary: NCI tumour cell line growth inhibition, 48 h
Calls of active or inactive are those of the source. No stated cut-off is given here; in the data, active = GI50 up to about 1.1 µM and inactive = higher.
parameter: GI50

| molecule | observed.result |
| --- | --- |
| c1cc2cc3c4c5c(cc6ccc7cc8cc9c%10c8c8c7c6c5c8c5c%10c(c1C9N1CCOCCOCCOCCOCCOCC1)c2c45)C3 (stereo not given) | > 100 µM (inactive) |
| COc1cccc(-c2cccc(SC)n2)n1 | 24 µM (inactive) |
| CCN(CC)CCOc1ccc(C(O)(Cc2ccc(OC)cc2)c2ccccc2)cc1 (stereo not given) | 14.3 µM (inactive) |
| C/C=C/C1(NS(=O)(=O)c2ccc(C)cc2)CCC(C(C)(C)C)CC1 (stereo not given) | 17.3 µM (inactive) |
| Cc1ccccc1-n1c(=O)sc2c(=O)n(-c3ccccc3)c(=S)[nH]c21 | > 100 µM (inactive) |
| N/C(S)=N/N=C/c1cc(CN2CCOCC2)c(N)cn1 | 18.7 µM (inactive) |
| O=C(O)/C(=C\c1ccccc1Cl)S(=O)(=O)c1ccccc1 | > 100 µM (inactive) |
| CC1(C)NC(C(=O)c2ccccc2)=[N+]([O-])C1(O)c1ccccc1 (stereo not given) | > 100 µM (inactive) |
| CC1CCC(C(C)C)C(OC(=O)NCn2cc(-c3ccccc3)nn2)C1 (stereo not given) | > 100 µM (inactive) |
| CC(C)(C)/C(=N\Nc1nc2ccccc2[nH]1)c1ccccn1 | 61 µM (inactive) |

* * *

- System: PC-3
- test.summary: NCI tumour cell line growth inhibition, 48 h
Calls of active or inactive are those of the source. Rule as the data show it: active = GI50 up to about 1.1 µM and inactive = higher.
Classes used: active, inactive

| compound | label |
| --- | --- |
| CC(=O)OCC1(C)C(O)CCC2(C)C1CCC1CC3CC12CCC3(O)CO (centres undefined) | inactive |
| CSc1ccc2c(c1)N(CCCN(C)C)c1ccccc1S2 | inactive |
| CC1(C)OC2OC(C(COS(=O)(=O)C(F)(F)F)N=[N+]=[N-])C(OC(=O)c3ccccc3)C2O1 (centres undefined) | inactive |
| NC(=O)CN1CC(C2=C(O)CN(CC(N)=O)C2=O)=CC1=O | inactive |
| CCC1(O)C(=O)OCc2c1cc1n(c2=O)Cc2cc3cc(N)ccc3nc2-1 (centres undefined) | active |
| O=P1(Cc2ccccc2)c2ccccc2-c2ccccc21 | inactive |
| OC(COc1cccc2ccccc12)CN1CCOCC1 (centres undefined) | inactive |
| CN(C)CCNC1=Nc2ccccc2C(=O)N2CSCC12 (centres undefined) | inactive |
| CC1CCC(C(C)C)C(OC(=O)NCn2cc(-c3ccccc3)nn2)C1 (centres undefined) | inactive |
| Cc1cc(C)c2c(O)cc(-c3cccc(Cl)c3)nc2n1 | active |
| Cc1c(C(=O)c2ccc(N)c3ccccc23)c2ccccc2n1CCN1CCOCC1 | inactive |
| Cc1cc(S(=O)(=O)Nc2n[nH]c(-c3ccc(Cl)cc3)n2)c(SSc2cc(Cl)c(C)cc2S(=O)(=O)Nc2n[nH]c(-c3ccc(Cl)cc3)n2)cc1Cl | inactive |
| CCCCCCCC/C=C\CCCCCCC(F)C(=O)O (centres undefined) | inactive |
| N=C(N)NCCCC(NCc1c2ccccc2nc2ccccc12)C(=O)O (centres undefined) | inactive |
| O=[N+]([O-])c1ccc(C2NC(=S)NC3c4cc([N+](=O)[O-])ccc4CCCC23)cc1 (centres undefined) | inactive |
| COc1cc(OC)c(C2c3cc4c(cc3OC(N3CCCC3)C2C)OCO4)c(OC)c1 (centres undefined) | inactive |
| O=C1c2ccccc2-c2nc(-c3cccs3)cc3c2c1nc1ccccc13 | inactive |
| COC(=O)CC1(O)C(C=C(C)C)C(C(=O)OC)C(=O)C(C(=O)OC)C1C(=O)OC (centres undefined) | inactive |
| C/C(=N\NC(=S)NCCCCNC(=S)N/N=C(\C)c1ccccn1)c1ccccc1 | inactive |
| CC(=O)c1ccccc1NP(=O)(c1ccccc1)c1ccccc1 | inactive |
| COc1cc2c(/C=C3/C(=O)N(C)c4ccc(O)cc43)c(Cl)[nH]c2cc1C | inactive |
| O=c1c(-c2ccccc2)c(SCCN2CCOCC2)n(-c2ccccc2)c(=S)n1-c1ccccc1 | inactive |
| C=C(C)CN(CC#N)CC(=C)C | inactive |
| Nc1ncnc2c1ncn2C1C=CC(COS(N)(=O)=O)C1 (centres undefined) | inactive |
